Biological target: AOC1 (Homo sapiens (Human), UniProt P19801)
Sequence (P19801 20-751): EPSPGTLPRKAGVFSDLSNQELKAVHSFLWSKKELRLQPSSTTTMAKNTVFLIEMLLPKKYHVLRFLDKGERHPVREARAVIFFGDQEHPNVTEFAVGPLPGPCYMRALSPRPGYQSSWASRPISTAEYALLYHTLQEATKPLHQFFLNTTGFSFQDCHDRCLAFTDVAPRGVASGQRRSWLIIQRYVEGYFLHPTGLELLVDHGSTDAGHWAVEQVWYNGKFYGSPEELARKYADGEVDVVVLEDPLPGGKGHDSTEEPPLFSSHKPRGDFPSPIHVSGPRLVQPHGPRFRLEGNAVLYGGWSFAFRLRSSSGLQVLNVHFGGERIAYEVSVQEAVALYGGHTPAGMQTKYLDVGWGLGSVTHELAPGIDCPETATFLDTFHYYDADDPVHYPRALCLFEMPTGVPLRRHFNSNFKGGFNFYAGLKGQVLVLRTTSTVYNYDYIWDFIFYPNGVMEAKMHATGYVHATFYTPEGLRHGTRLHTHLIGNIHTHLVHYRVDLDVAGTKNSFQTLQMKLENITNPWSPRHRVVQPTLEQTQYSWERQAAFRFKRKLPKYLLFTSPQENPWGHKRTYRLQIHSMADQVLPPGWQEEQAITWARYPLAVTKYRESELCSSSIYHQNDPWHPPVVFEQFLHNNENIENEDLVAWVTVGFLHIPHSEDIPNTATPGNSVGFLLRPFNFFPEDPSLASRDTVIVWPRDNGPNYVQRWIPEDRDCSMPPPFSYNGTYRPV
Test: AOC1 biochemical assay (Amplex Red)
Settings: read-out: AOC1 IC50
Consider the following compounds and their measured pIC50 readings.
The quantity pIC50 is defined as the negative base-10 logarithm of the molar concentration.

Some entries whose results are on file:
[[record]]
smiles_string = "COCCN(C)C(=O)[C@H]1[C@@H]2CN(S(=O)(=O)c3ccc(OC/C(=C/F)CN)nc3)C[C@@H]21"
numeric_result = 4.56

[[record]]
smiles_string = "CC1(O)CCN(S(=O)(=O)c2ccc(OC/C(=C/F)CN)nc2)CC1"
numeric_result = 5.83

[[record]]
smiles_string = "NC/C(=C\\F)COc1ccc(S(=O)(=O)N2CCC(O)CC2)cn1.O=C(O)C(F)(F)F"
numeric_result = 4.94


Would you kindly look at the next entry?
# input Sample COC(=O)[C@H]1[C@@H]2CN(S(=O)(=O)c3ccc(OC/C(=C/F)CN)nc3)C[C@@H]21 — what was its pIC50?
# output 4.38

====

Target: AOC2 (Homo sapiens (Human))
Assay: AOC2 biochemical assay (Amplex Red)
Conditions: read-out: AOC2 IC50
Structures can show the parent of a compound that is named as a salt.
Consider the following compounds and their measured IC50 readings.
// note: answer is a bare numeric in nM

Some entries whose results are on file:
[[record]]
compound = "CC1(C(=O)O)CCN(S(=O)(=O)c2ccc(OC/C(=C/F)CN)nc2)CC1"
numeric_result = 6

[[record]]
compound = "CC1(C(=O)NC2CCOCC2)CCN(S(=O)(=O)c2ccc(OC/C(=C/F)CN)nc2)CC1 [Example 58, trifluoroacetate]"
numeric_result = 363


# input For AOC2 (Homo sapiens (Human)), provide IC50 of CN(C)C(=O)C1CN(S(=O)(=O)c2ccc(OC/C(=C/F)CN)nc2)C1 please.
# output 158

# input For AOC2 (Homo sapiens (Human)), provide IC50 of COC(=O)[C@H]1[C@@H]2CN(S(=O)(=O)c3ccc(OC/C(=C/F)CN)nc3)C[C@@H]21 please.
# output 315

# input For AOC2 (Homo sapiens (Human)), provide IC50 of NC/C(=C\F)COc1ccc(S(=O)(=O)N2CCC2)cn1 please.
# output 262

# input For AOC2 (Homo sapiens (Human)), provide IC50 of NC/C(=C\F)COc1ccc(S(=O)(=O)N2CCC(C(N)=O)CC2)cn1 please.
# output 251

# input For AOC2 (Homo sapiens (Human)), provide IC50 of COC1CCN(S(=O)(=O)c2ccc(OC/C(=C/F)CN)nc2)CC1 please.
# output 234

# input For AOC2 (Homo sapiens (Human)), provide IC50 of CC(C)(O)C1CN(S(=O)(=O)c2ccc(OC/C(=C/F)CN)nc2)C1 please.
# output 164

====

Target: AOC1 (Homo sapiens (Human), UniProt P19801)
Test: AOC1 biochemical assay (Amplex Red)
Conditions: read-out: AOC1 IC50
Rule: IC50 below 20 µM gives TRUE, anything at or above gives FALSE.

Reference set, count: 4
[[record]]
molecule = "NC/C(=C\\F)COc1ccc(S(=O)(=O)N2CC[C@H](C(=O)N3CCOCC3)C2)cn1"
group_label = "FALSE"

[[record]]
molecule = "NC/C(=C\\F)COc1ccc(S(=O)(=O)N2CCC(C(=O)N3CCC3)CC2)cn1"
group_label = "FALSE"

[[record]]
molecule = "NC/C(=C\\F)COc1ccc(S(=O)(=O)N2C[C@H]3C[C@@]3(C(=O)N3CCOCC3)C2)cn1"
group_label = "TRUE"

[[record]]
molecule = "NC/C(=C\\F)COc1ccc(S(=O)(=O)N2CCC(O)(C(F)(F)F)CC2)cn1"
group_label = "FALSE"


Kindly review the next molecule as well.
# input Below 20 µM on IC50? Entry NC/C(=C\F)COc1ccc(S(=O)(=O)N2CCC(C(=O)NC3CC3)CC2)cn1
# output FALSE

====

Target: UniProt O75106
Test: AOC2 biochemical assay (Amplex Red)
Conditions: read-out: AOC2 IC50
Structures can show the parent of a compound that is named as a salt.
Rule: IC50 below 200 nM gives Criterion met, anything at or above gives Criterion not met.

Reference set, count: 8
[[record]]
compound = "COC(=O)C1CCN(S(=O)(=O)c2ccc(OC/C(=C/F)CN)nc2)CC1 [Example 51, trifluoroacetate]"
group_label = "Criterion not met"

[[record]]
compound = "NC/C(=C\\F)COc1ccc(S(=O)(=O)N2CCC(CC(N)=O)CC2)cn1"
group_label = "Criterion met"

[[record]]
compound = "CN(C)C(=O)[C@H]1CCN(S(=O)(=O)c2ccc(OC/C(=C/F)CN)nc2)C1"
group_label = "Criterion met"

[[record]]
compound = "CNC(=O)NC1CCN(S(=O)(=O)c2ccc(OC/C(=C/F)CN)nc2)CC1"
group_label = "Criterion not met"

[[record]]
compound = "CC(=O)NC1CCN(S(=O)(=O)c2ccc(OC/C(=C/F)CN)nc2)C1 (stereo not drawn)"
group_label = "Criterion met"

[[record]]
compound = "NC/C(=C\\F)COc1ccc(S(=O)(=O)N2CC(C(N)=O)C2)cn1"
group_label = "Criterion met"

[[record]]
compound = "CCNC(=O)C1CCN(S(=O)(=O)c2ccc(OC/C(=C/F)CN)nc2)CC1"
group_label = "Criterion not met"

[[record]]
compound = "CCNC(=O)C1(C)CCN(S(=O)(=O)c2ccc(OC/C(=C/F)CN)nc2)CC1"
group_label = "Criterion met"


# input Below 200 nM on IC50? Entry NC/C(=C\F)COc1ccc(S(=O)(=O)N2CCCCC2)cn1
# output Criterion met

====

Target: AOC2 (Homo sapiens (Human), UniProt O75106)
Sequence (O75106 whole entry): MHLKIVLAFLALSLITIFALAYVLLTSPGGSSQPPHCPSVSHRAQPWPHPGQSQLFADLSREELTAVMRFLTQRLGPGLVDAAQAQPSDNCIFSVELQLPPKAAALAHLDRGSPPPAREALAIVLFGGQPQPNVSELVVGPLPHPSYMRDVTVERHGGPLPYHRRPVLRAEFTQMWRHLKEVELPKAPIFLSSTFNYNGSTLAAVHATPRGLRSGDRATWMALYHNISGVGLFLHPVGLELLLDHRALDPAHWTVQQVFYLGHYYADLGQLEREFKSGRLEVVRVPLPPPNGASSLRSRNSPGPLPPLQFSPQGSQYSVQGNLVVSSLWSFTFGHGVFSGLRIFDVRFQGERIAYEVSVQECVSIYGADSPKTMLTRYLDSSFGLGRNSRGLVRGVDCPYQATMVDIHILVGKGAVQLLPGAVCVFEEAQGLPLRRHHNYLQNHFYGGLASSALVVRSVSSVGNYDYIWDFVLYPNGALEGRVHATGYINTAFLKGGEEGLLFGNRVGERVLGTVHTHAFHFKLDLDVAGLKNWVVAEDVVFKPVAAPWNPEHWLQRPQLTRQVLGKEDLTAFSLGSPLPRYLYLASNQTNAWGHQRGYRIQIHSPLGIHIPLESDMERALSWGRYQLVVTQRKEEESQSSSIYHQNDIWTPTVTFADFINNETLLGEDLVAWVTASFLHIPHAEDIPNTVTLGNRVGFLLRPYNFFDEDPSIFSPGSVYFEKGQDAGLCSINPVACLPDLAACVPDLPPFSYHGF
Assay: AOC2 biochemical assay (Amplex Red)
Conditions: read-out: AOC2 IC50
parameter: IC50 (nM)
// note: answer is a bare numeric in nM

Some entries whose results are on file:
[[record]]
smiles_string = "CC1(O)CN(S(=O)(=O)c2ccc(OC/C(=C/F)CN)nc2)C1"
parameter = "IC50"
numeric_result = 244

[[record]]
smiles_string = "NC/C(=C\\F)COc1ccc(S(=O)(=O)N2CC[C@H](C(=O)N3CCOCC3)C2)cn1"
parameter = "IC50"
numeric_result = 164

[[record]]
smiles_string = "CN(C)C(=O)CC1CCN(S(=O)(=O)c2ccc(OC/C(=C/F)CN)nc2)CC1"
parameter = "IC50"
numeric_result = 262


# input Sample CNC(=O)[C@H]1[C@@H]2CN(S(=O)(=O)c3ccc(OC/C(=C/F)CN)nc3)C[C@@H]21 — what was its IC50?
# output 162

====

Consider the following compounds and their measured IC50 readings.
Molecular target: UniProt:P19801
Test: AOC1 biochemical assay (Amplex Red)
Conditions: read-out: AOC1 IC50

Some entries whose results are on file:
[[record]]
smiles_string = "NC/C(=C\\F)COc1ccc(S(=O)(=O)N2CC(F)(F)C2)cn1"
parameter = "IC50"
result = "22.6 µM"

[[record]]
smiles_string = "CC(=O)NCC1CCN(S(=O)(=O)c2ccc(OC/C(=C/F)CN)nc2)CC1"
parameter = "IC50"
result = "> 50 µM"

[[record]]
smiles_string = "NC/C(=C\\F)COc1ccc(S(=O)(=O)N2CC[C@H](C(N)=O)C2)cn1"
parameter = "IC50"
result = "> 50 µM"

[[record]]
smiles_string = "NC/C(=C\\F)COc1ccc(S(=O)(=O)N2CCC(N3CCNC3=O)CC2)cn1"
parameter = "IC50"
result = "> 50 µM"

[[record]]
smiles_string = "CN1CCN(C2CCN(S(=O)(=O)c3ccc(OC/C(=C/F)CN)nc3)CC2)C1=O"
parameter = "IC50"
result = "> 50 µM"


Would you kindly look at the next entry?
# input Sample NC/C(=C\F)COc1ccc(S(=O)(=O)N2CCCCC2)cn1 — what was its IC50?
# output 23.2 µM

====

Target: AOC2 (Homo sapiens (Human))
Test: AOC2 biochemical assay (Amplex Red)
Conditions: read-out: AOC2 IC50
pIC50: −log10 of the molar value. Structures can show the parent of a compound that is named as a salt.
Decide using pIC50: a value greater than or equal to 7 is Satisfied, a smaller one is Not satisfied.

Reference set, count: 2
[[record]]
compound = "CNC(=O)[C@@H]1CCN(S(=O)(=O)c2ccc(OC/C(=C/F)CN)nc2)C1 [Example 24]"
group_label = "Not satisfied"

[[record]]
compound = "NC/C(=C\\F)COc1ccc(S(=O)(=O)N2CC[C@@H](C(N)=O)C2)cn1 [Example 33]"
group_label = "Satisfied"


# input Is reported pIC50 greater than or equal to 7 here: CN(C)C(=O)C1CCN(S(=O)(=O)c2ccc(OC/C(=C/F)CN)nc2)CC1 [Example 12]
# output Not satisfied

# input Is reported pIC50 greater than or equal to 7 here: NC/C(=C\F)COc1ccc(S(=O)(=O)N2CCC(C(=O)N3CCOCC3)CC2)cn1 [Example 10]
# output Not satisfied

# input Is reported pIC50 greater than or equal to 7 here: NC/C(=C\F)COc1ccc(S(=O)(=O)N2CCC(C(=O)N3CCOCC3)(c3ccccc3)CC2)cn1 [Example 09]
# output Not satisfied

# input Is reported pIC50 greater than or equal to 7 here: NC/C(=C\F)COc1ccc(S(=O)(=O)N2CCC(O)(C(F)(F)F)CC2)cn1 [Example 50]
# output Satisfied

# input Is reported pIC50 greater than or equal to 7 here: NC/C(=C\F)COc1ccc(S(=O)(=O)N2CCC(O)CC2)cn1.O=C(O)C(F)(F)F [Example 45]
# output Not satisfied

# input Is reported pIC50 greater than or equal to 7 here: CNC(=O)C1CCN(S(=O)(=O)c2ccc(OC/C(=C/F)CN)nc2)CC1 [Example 44, trifluoroacetate]
# output Not satisfied

Where do these numbers come from? They come from patent US12178809B2.
